Kindly supply the reported Fold improvement over hu1G7.v1 values for the records listed here.
# systemUnderTest: T1, human FcRH5 protein fragment (soluble) (human, UniProt Q96RD9 16-851)
# T1 construct: whole entry named; also called soluble human FcRH5; Human FcRH5 (BIACORE analyte)
# T1 sequence: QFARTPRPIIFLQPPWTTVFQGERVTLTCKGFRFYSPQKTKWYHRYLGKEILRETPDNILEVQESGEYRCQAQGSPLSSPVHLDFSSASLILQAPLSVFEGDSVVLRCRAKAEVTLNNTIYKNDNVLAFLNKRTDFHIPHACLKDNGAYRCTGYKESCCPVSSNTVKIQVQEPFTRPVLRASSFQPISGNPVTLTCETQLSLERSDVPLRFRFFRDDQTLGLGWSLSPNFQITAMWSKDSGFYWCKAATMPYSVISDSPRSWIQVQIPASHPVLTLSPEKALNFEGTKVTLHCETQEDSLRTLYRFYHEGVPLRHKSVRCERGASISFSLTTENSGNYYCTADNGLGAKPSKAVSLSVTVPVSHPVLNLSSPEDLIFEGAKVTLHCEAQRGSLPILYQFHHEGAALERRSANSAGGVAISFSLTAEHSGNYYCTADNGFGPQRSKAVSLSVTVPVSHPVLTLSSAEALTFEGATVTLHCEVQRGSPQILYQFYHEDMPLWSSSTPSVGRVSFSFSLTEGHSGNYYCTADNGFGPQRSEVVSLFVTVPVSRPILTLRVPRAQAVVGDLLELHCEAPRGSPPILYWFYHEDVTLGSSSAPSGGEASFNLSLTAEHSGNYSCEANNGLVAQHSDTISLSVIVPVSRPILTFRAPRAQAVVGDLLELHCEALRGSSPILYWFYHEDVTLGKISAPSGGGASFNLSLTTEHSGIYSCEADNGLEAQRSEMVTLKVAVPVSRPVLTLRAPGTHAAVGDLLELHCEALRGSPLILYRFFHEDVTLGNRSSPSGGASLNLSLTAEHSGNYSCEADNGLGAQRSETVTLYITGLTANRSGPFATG
# method: BIACORE, human IgG1, soluble human FcRH5

Solved cases (2 shown):
binder: hu1G7.v85 (hIgG1) (antibody, V domains shown, bivalent hIgG1; also called hu1G7.v1.4.M64V) VH: EVQLVESGPGLVKPSETLSLTCTVSGFSLTRFGVHWVRQPPGKGLEWLGVIWRGGSTDYNAAFVSRLTISKDNSKNQVSLKLSSVTAADTAVYYCSNHYYGSSDYALDNWGQGTLVTVSS VL: DIQMTQSPSSLSASVGDRVTITCKASQDVRNLVVWFQQKPGKAPKLLIYSGSYRYSGVPSRFSGSGSGTDFTLTISSLQPEDFATYYCQQHYSPPYTFGQGTKVEIK
readoutValue: 17 fold

binder: 1G7.v1I (antibody, human IgG1, V domains shown, human IgG1 with the light chain of hu1G7.v1; also called I (hu1G7.v1 heavy chain S65P)) VH: EVQLVESGPGLVKPSETLSLTCTVSGFSLTRFGVHWVRQPPGKGLEWLGVIWRGGSTDYNAAFMPRLTISKDNSKNQVSLKLSSVTAADTAVYYCSNHYYGSSDYALDNWGQGTLVTVSS VL: DIQMTQSPSSLSASVGDRVTITCKASQDVSNIVVWFQQKPGKSPKLLIYSASYRYTGVPSRFSGSGSGTDFTLTISSLQPEDFATYYCQQHYSSPYTFGQGTKVEIK
readoutValue: 0.9 fold

# next binder below
Answer with the recorded Fold improvement over hu1G7.v1 of 1G7.v1H (antibody, human IgG1, V domains shown, human IgG1 with the light chain of hu1G7.v1; also called H (hu1G7.v1 heavy chain S65D)) VH: EVQLVESGPGLVKPSETLSLTCTVSGFSLTRFGVHWVRQPPGKGLEWLGVIWRGGSTDYNAAFMDRLTISKDNSKNQVSLKLSSVTAADTAVYYCSNHYYGSSDYALDNWGQGTLVTVSS VL: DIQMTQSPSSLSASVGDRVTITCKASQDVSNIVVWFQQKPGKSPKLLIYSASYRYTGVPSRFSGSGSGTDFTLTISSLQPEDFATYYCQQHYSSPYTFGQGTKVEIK only.
1 fold

Sourced from patent US20240383984A1
